- Study System: T1, extracellular domain (ECD) of human IGSF11 (VSIG3), biotinylated (human, UniProt Q5DX21 23-241, biotinylated (site not stated))
- T1 construct: also called human IGSF11 protein
- T1 sequence: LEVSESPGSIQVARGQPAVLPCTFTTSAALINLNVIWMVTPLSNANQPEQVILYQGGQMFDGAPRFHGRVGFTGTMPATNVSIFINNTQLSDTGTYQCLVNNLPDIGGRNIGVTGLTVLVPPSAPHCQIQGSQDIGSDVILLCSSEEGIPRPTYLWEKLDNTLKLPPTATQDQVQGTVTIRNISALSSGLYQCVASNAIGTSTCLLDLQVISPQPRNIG
- Test Protocol: ELISA, scFv; RFU grade (*** >1.0, ** 0.5-1.0, * 0.1-0.5)

Binder	relative fluorescent units (RFU), ELISA
A-023 (scFv format) (scFv, V domains shown, scFv) VH: QVQLVQSGAEVKKPGSSVKVSCKASGGTFSSYAISWVRQAPGQGLEWMGGIIPIFGTANYAQKFQGRVTITADESTSTAYMELSSLRSEDTAVYYCARPKYSSGWFYYYGMDVWGQGTTVTVSS VL: QSVLTQPPSVSAAPGQKVTISCSGSSSNIGNNYVSWYQQLPGTAPKLLIYDNNKRPSGIPDRFSGSKSGTSATLGITGLQTGDEADYYCGTWDSSLSVVFGGGTKLTVL	0.5 to 1 rfu
A-008 (scFv format) (scFv, V domains shown, scFv) VH: QLQLQESGPGLVKPSETLSLTCTVSGGSISSSGYYWGWIRQPPGKGLEWIGSIYYSGSTYYNPSLKSRVTISVDTSKNQFSLKLSSVTAADTAVYYCARHRVRFGEFDAFDIWGQGTMVTVSS VL: QAVLTQPPSVSGAPGERVTLSCTGTSSNVGADFDVHWYQQFPGTAPRLLIFGSDNRPSGVPDRFSGSKSGTSASLAITGLQVEDEADYYCQAYDVRLSGWVFGGGTKLTVL	> 1 rfu
A-016 (scFv format) (scFv, V domains shown, scFv) VH: QVQLQESGAEVKKPGASVKVSCKASGYTFTGYYMHWVRQAPGQGLEWMGGIIPIFGTANYAQKFQGRVTITADESTSTAYMELSSLRSEDTAVYYCAGAGMELTRSGAYYYYGMDVWGQGTTVTVSS VL: QSALTQPASVSGSPGQSITISCTGTSSDIGGYTFVSWYQQHPGKAPKVMIHDVNNRPSGISNRFSGSKSGNTASLTISGLQAEDEADYYCSSVTSTNTYVFGTGTKVTVL	> 1 rfu
A-027 (scFv format) (scFv, V domains shown, scFv) VH: QVQLVQSGAEVKKPGSSVKVSCKASGGTFSSYAISWVRQAPGQGLEWMGGIIPIFGTANYAQKFQGRVTITADKSTSTAYMELSSLRSEDTAVYYCARARGSTWGYFDYWGQGTLVTVSS VL: EIVLTQSPASLSLSPGERVTLSCRASQSVSNYLAWYQQKPGQAPRLLIYDASNRATGIPARFSGSGSGTDFTLTISSLEPEDFAVYYCQQRDNWPLTFGGGTKVEIK	0.1 to 0.5 rfu
A-011 (scFv format) (scFv, V domains shown, scFv) VH: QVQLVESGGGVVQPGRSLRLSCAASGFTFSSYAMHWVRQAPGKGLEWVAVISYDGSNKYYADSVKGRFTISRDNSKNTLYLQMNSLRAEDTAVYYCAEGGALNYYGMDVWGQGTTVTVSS VL: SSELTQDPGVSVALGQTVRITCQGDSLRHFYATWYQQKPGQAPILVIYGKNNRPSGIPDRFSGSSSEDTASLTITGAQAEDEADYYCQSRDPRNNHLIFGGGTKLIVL	0.1 to 0.5 rfu
